Below: a set of entries, each annotated with reported normalized growth.
- assayMethodText: chemical genetic growth profiling, strain panel (AID 1159580);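 further: tested at 20 µM; growth read once vehicle control cultures reached saturation at 30 °C; 1 = growth at the plate median or of vehicle wells; lower values mean less growth of the strain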
- cond: S. cerevisiae deletion strains, growth OD, locus YLR262C, strain YPT6, hits give low values
Out of some 5,500 compounds screened, about 2,000 (36%) were called active. Inconclusive results (about 18%) are left out. This is one part of the list.
In your answer, state the number alone without any accompanying words.

These recorded examples may help you get a feel for the data.
Q: Which normalized growth is listed for O=C(Nc1ccccc1)N1CCN(C(c2ccccc2)c2ccccc2)CC1 ?
Ans: 0.985

Q: Which normalized growth is listed for NC(=NS(=O)(=O)c1cc(Cl)c(Oc2ccc([N+](=O)[O-])cc2Cl)c(Cl)c1)c1cccnc1 ?
Ans: 1.09

Q: Which normalized growth is listed for CC1CC(=O)Nc2ccccc2N1C(=O)c1ccc([N+](=O)[O-])cc1 (stereo not given) ?
Ans: 1

Q: Which normalized growth is listed for Clc1ccc2ocnc2c1 ?
Ans: 1.08

Shifting focus to the molecule that follows.
Q: Which normalized growth is listed for O=C(Oc1ccccc1C(=O)O)c1ccccc1O ?
Ans: 0.908

====

- assayMethodText: chemical genetic growth profiling, strain panel (AID 1159580)
- cond: S. cerevisiae deletion strains, growth OD, locus YOR080W, strain dia2, hits give low values
Screen size: about 5,500 compounds; about 2,000 (36%) were called active. Inconclusive results (about 18%) are left out. The list shows a part of the results.
outcomeMeasure: normalized growth
In your answer, state the number alone without any accompanying words.

These recorded examples may help you get a feel for the data.
Q: Which normalized growth is listed for C/C=C(\C)C(=O)O[C@@H]1c2c(ccc3ccc(=O)oc23)OC(C)(C)[C@@H]1OC(C)=O ?
Ans: 1.01

Q: Which normalized growth is listed for CC1=CC(=O)C2C(C)(C)CCC[C@]2(C)[C@@]1(O)CCc1ccoc1 (some centres not stated) ?
Ans: 1

Q: Which normalized growth is listed for C[C@@H]1O[C@@H](O[C@H]2CC[C@]3(C=O)C4CC[C@]5(C)[C@@H](C6=CC(=O)OC6)CC[C@]5(O)C4CC[C@]3(O)C2)[C@H](O)[C@H](O)[C@H]1O (some centres not stated) ?
Ans: 0.988

Q: Which normalized growth is listed for NC(=O)c1ccccc1O ?
Ans: 0.981

Q: Which normalized growth is listed for COc1ccc(-c2cc(=O)c3c(O)c(OC)c(O[C@H]4O[C@H](CO[C@@H]5O[C@@H](C)[C@H](O)[C@@H](O)[C@H]5O)[C@@H](O)[C@H](O)[C@H]4O)cc3o2)cc1 ?
Ans: 0.992

Q: Which normalized growth is listed for COC(=O)C(N)CS (configuration not stated) ?
Ans: 0.979

Q: Which normalized growth is listed for COC1C(O)C(O[C@H]2CC[C@]3(C=O)C4C(CC[C@]3(O)C2)[C@@]2(O)CC[C@H](C3=CC(=O)OC3)[C@@]2(C)C[C@H]4OC(C)=O)OC(C)C1OC(C)=O (some centres not stated) ?
Ans: 1.01

Q: Which normalized growth is listed for NC(=O)c1cc([N+](=O)[O-])cc([N+](=O)[O-])c1 ?
Ans: 1.02

Q: Which normalized growth is listed for CC(=O)O[C@@H]1CC2C(C)(CC[C@H](O)C2(C)C)C2CC[C@]3(C)C(=CC(=O)O[C@H]3c3ccoc3)C21C (some centres not stated) ?
Ans: 0.99

Q: Which normalized growth is listed for CCC(=O)OCC(=O)C1(OC(=O)CC)C(C)CC2C3C(Cl)CC4=CC(=O)C=CC4(C)C3C(O)CC21C (configuration not stated) ?
Ans: 1.02

Others:
Q: Which normalized growth is listed for C/C=C/CC(C)C(O)C1C(=O)NC(CC)C(=O)N(C)CC(=O)N(C)C(CC(C)C)C(=O)NC(C(C)C)C(=O)N(C)C(CC(C)C)C(=O)NC(C)C(=O)NC(C)C(=O)N(C)C(CC(C)C)C(=O)N(C)C(CC(C)C)C(=O)N(C)C(C(C)C)C(=O)N1C (configuration not stated) ?
Ans: 1

Q: Which normalized growth is listed for COc1ccccc1N1CCN(CCCNc2cc(=O)n(C)c(=O)n2C)CC1 ?
Ans: 1.01

====

- assayMethodText: chemical genetic growth profiling, strain panel (AID 1159580)
- cond: S. cerevisiae deletion strains, growth OD, locus YDR297W, strain sur2, hits give low values
Among all 5,500 compounds or so, about 2,000 (36%) were called active. Not shown: some 18% with an inconclusive outcome. The list shows a part of the results.
outcomeMeasure: normalized growth
In your answer, state the number alone without any accompanying words.

These recorded examples may help you get a feel for the data.
Q: Which normalized growth is listed for C[C@@H]1O[C@@H](O[C@H]2CC[C@]3(C=O)C4CC[C@]5(C)[C@@H](C6=CC(=O)OC6)CC[C@]5(O)C4CC[C@]3(O)C2)[C@H](O)[C@H](O)[C@H]1O (stereo not given in full) ?
Ans: 0.996

Q: Which normalized growth is listed for C[C@H]1O[C@@H](O[C@H]2[C@@H](O)C[C@H](O[C@H]3[C@@H](O)C[C@H](O[C@H]4CC[C@]5(C)C6C[C@@H](O)[C@]7(C)[C@@H](C8=CC(=O)OC8)CC[C@]7(O)C6CC[C@@H]5C4)O[C@@H]3C)O[C@@H]2C)C[C@H](O)[C@@H]1O (stereo not given in full) ?
Ans: 0.987

Q: Which normalized growth is listed for CC1(C)O[C@@H]2CC3C4C[C@H](F)C5=CC(=O)CC[C@]5(C)C4[C@@H](O)C[C@]3(C)[C@]2(C(=O)CO)O1 (stereo not given in full) ?
Ans: 1.01

Others:
Q: Which normalized growth is listed for Nc1ccc(S(=O)(=O)Nc2ncccn2)cc1 ?
Ans: 0.975

Q: Which normalized growth is listed for NCCCN ?
Ans: 0.996

Q: Which normalized growth is listed for CC1(C)C(=O)CC[C@@]2(C)C1C[C@@H](O)[C@@]1(C)C3=CC(=O)O[C@@H](c4ccoc4)[C@]3(C)CCC21 (stereo not given in full) ?
Ans: 1.02

====

- assayMethodText: chemical genetic growth profiling, strain panel (AID 1159580);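 further: tested at 20 µM; growth read once vehicle control cultures reached saturation at 30 °C; 1 = growth at the plate median or of vehicle wells; lower values mean less growth of the strain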
- cond: S. cerevisiae deletion strains, growth OD, locus YBR135W, strain CKS1, hits give low values
Out of some 5,500 compounds screened, about 2,000 (36%) were called active. Not shown: some 18% with an inconclusive outcome. Some of the results follow.
outcomeMeasure: normalized growth
In your answer, state the number alone without any accompanying words.

These recorded examples may help you get a feel for the data.
Q: Which normalized growth is listed for Cc1cc(-c2onc(C)c2C(=O)Sc2ccccc2)no1 ?
Ans: 0.939

Q: Which normalized growth is listed for OC(COCc1ccccc1)Cn1c2ccccc2c2ccccc21 (stereo unspecified) ?
Ans: 0.951

Q: Which normalized growth is listed for FC(F)(F)Oc1ccc(OCc2n[nH]c(=S)n2-c2ccc(Cl)cc2)cc1 ?
Ans: 0.989

Q: Which normalized growth is listed for CCOC(=O)NC(=S)Nc1ccc(C(C)(C)C)cc1NC(=S)NC(=O)OCC ?
Ans: 0.98

Others:
Q: Which normalized growth is listed for N#C/C(N=Cc1cc(Cl)cc(Cl)c1O)=C(\C#N)N=Cc1cc(Cl)cc(Cl)c1O ?
Ans: 0.927

Q: Which normalized growth is listed for CC(C)(C)NC(=S)N/N=C\c1cc(Br)c(O)c(Br)c1 ?
Ans: 0.962

====

- assayMethodText: chemical genetic growth profiling, strain panel (AID 1159580);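 further: tested at 20 µM; growth read once vehicle control cultures reached saturation at 30 °C; 1 = growth at the plate median or of vehicle wells; lower values mean less growth of the strain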
- cond: S. cerevisiae deletion strains, growth OD, locus YMR058W, strain fet3, hits give low values
Hit rate of the full screen: of about 5,500 compounds, about 2,000 (36%) were called active. Roughly 18% stayed inconclusive and do not appear here. Some of the results follow.
outcomeMeasure: normalized growth
In your answer, state the number alone without any accompanying words.

Q: Which normalized growth is listed for CN(C)CC[C@H](c1ccc(Cl)cc1)c1ccccn1 ?
Ans: 1

Q: Which normalized growth is listed for Oc1ccc([C@H]2Oc3cc(O)cc(O)c3C[C@H]2O)cc1 ?
Ans: 0.985

Q: Which normalized growth is listed for C[N+]1(C)C[C@H](O)[C@H](C(=O)[O-])C1 ?
Ans: 1.01

Q: Which normalized growth is listed for O=C(CCCN1CCN(c2ccccn2)CC1)c1ccc(F)cc1 ?
Ans: 0.943

Q: Which normalized growth is listed for CCCCC(=O)O[C@]1(C(=O)CO)[C@@H](C)CC2C3CCC4=CC(=O)C=C[C@]4(C)[C@@]3(F)C(O)C[C@@]21C (stereo partly specified) ?
Ans: 0.981

Shifting focus to the molecule that follows.
Q: Which normalized growth is listed for CCC(=O)OCC(=O)[C@@]1(OC(=O)CC)[C@@H](C)CC2C3CCC4=CC(=O)C=C[C@]4(C)C3(F)[C@@H](O)C[C@@]21C (stereo partly specified) ?
Ans: 0.997

====

- assayMethodText: chemical genetic growth profiling, strain panel (AID 1159580);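 further: tested at 20 µM; growth read once vehicle control cultures reached saturation at 30 °C; 1 = growth at the plate median or of vehicle wells; lower values mean less growth of the strain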
- cond: S. cerevisiae deletion strains, growth OD, locus YAL026C, strain drs2, hits give low values
Among all 5,500 compounds or so, about 2,000 (36%) were called active. Another 18% or so got no clear call; they are omitted. The list shows a part of the results.
Below: a set of entries, each annotated with reported normalized growth.

Q: Which normalized growth is listed for CC(C)C[C@@H](NC(=O)OCC1c2ccccc2-c2ccccc21)C(=O)O ?
Ans: 0.982 (inactive)

Others:
Q: Which normalized growth is listed for COc1ccccc1N1CCN(CCCNc2cc(=O)n(C)c(=O)n2C)CC1 ?
Ans: 1.02 (inactive)

Q: Which normalized growth is listed for C/C=C(\C)C(=O)O[C@@H]1c2c(ccc3ccc(=O)oc23)OC(C)(C)[C@@H]1OC(C)=O ?
Ans: 0.989 (inactive)
